# Lookup of reported IC50 keyed by entry
- Test Target: human LPA1 (Homo sapiens)
- Construct: expressed in transfected cells; host or cells: CHO-K1
- Protocol Text: In vitro LPA1 calcium flux antagonist assay, Bioduro protocol
- Assay type: cell-based
- Assay Context: CHO-K1 cells overexpressing human LPA1 and G15a; LPA challenge at EC80; calcium mobilization on FLIPR Tetra; read-out: IC50 (nM) in Assay B2
The response must be a number in nM with no trailing unit.

Compound	Endpoint Result
COc1cc([C@@H](O)[C@H](Cn2cc3cc(C)cc(C(=O)O)c3n2)OC2CCCC2)cc(OC)c1C [Compound 161]	6.28
CCOc1cc([C@@H](O)[C@H](Cn2cc3nccc(C(=O)O)c3n2)OC2CCCC2)cc(OCC)c1C(C)=O [Compound 204]	122
COc1cc([C@@H](O)[C@H](Cc2cc3cccc(C(=O)O)n3n2)OC2Cc3ccccc3C2)cc(OC)c1C [Compound 264]	5.33
COc1cc([C@@H](O)[C@H](Cc2nc(C(C)C(=O)O)c(C3CC3)s2)OC2CCCC2)cc(OC)c1C (some centres unmarked) [Compound 268]	52
COc1cc([C@@H](O)[C@H](Cn2cc3cc(C#N)cc(C(=O)O)c3n2)OC2CCCC2)cc(OC)c1C [Compound 165]	6.28

Could you now consider this next compound?
According to the records, this compound COc1cc([C@@H](O)[C@H](Cn2cc3cc(C#N)cc(C(=O)O)c3n2)OC2CCCC2)ccc1C1CC1 [Compound 227] displays IC50 of 149

* * *

- Test Target: human LPA1 (Homo sapiens, UniProt Q92633)
- Construct: expressed in transfected cells; host or cells: CHO-K1
- Sequence (Q92633 whole entry): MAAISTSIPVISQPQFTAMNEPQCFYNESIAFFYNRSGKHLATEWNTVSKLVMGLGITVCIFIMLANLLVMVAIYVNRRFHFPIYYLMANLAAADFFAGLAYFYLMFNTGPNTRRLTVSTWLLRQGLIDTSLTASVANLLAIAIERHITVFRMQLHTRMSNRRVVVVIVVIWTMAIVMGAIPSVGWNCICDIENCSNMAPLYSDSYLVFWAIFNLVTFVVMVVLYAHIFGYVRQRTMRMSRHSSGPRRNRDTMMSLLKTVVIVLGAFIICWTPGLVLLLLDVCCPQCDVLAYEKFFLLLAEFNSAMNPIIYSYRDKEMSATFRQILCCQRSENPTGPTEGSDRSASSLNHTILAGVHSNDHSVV
- Protocol Text: In vitro LPA1 calcium flux antagonist assay, Bioduro protocol
- Assay type: cell-based
- Assay Context: CHO-K1 cells overexpressing human LPA1 and G15a; LPA challenge at EC80; calcium mobilization on FLIPR Tetra; read-out: IC50 (nM) in Assay B2
- Method: In Vitro LPA1 Calcium Flux Antagonist Assay Bioduro Protocol CHO-K1 cells overexpressing human LPA1 and G15a were seeded at a total volume of 20 uL (15000 cells/well) into Matrigel pre-coated 384-well plates (coming -3764) and incubated at 37° C. After overnight incubation, the cells were serum starved for 4 h. […] Calcium mobilization was measured on a FLIPR Tetra (MDS). […] Percentage inhibition is calculated using the following formula: […]
Measured Parameter: IC50

Use these answered entries as a reference point.
1. COc1cc([C@@H](O)[C@H](Cn2cc3nccc(C(=O)O)c3n2)OC2CCCC2)ccc1C(F)F 454 nM
2. CCc1cc(C(=O)O)c2nn(C[C@H](OC3CCCC3)[C@H](O)c3cc(OC)c(C)c(OC)c3)cc2c1 4.01 nM
3. COc1cc([C@@H](O)[C@H](Cc2nc3c(C(=O)O)cccc3s2)OC2Cc3ccccc3C2)cc(OC)c1C 3.81 nM

Sure, the documented IC50 for COc1cc(C(=O)O)c2nc(C[C@H](OCC(C)C)[C@H](O)c3cc(OC)c(C)c(OC)c3)sc2c1 is 9.18 nM

* * *

Listed here are compounds together with their documented pIC50.
- Test Target: human LPA1 (Homo sapiens, UniProt Q92633)
- Construct: expressed in transfected cells; host or cells: CHO-K1
- Protocol Text: In vitro LPA1 functional antagonist assay (calcium mobilization, FLIPR)
- Assay type: cell-based
- Assay Context: CHO-K1 cells overexpressing human LPA1; Oleoyl LPA challenge; calcium mobilization on FLIPR Tetra
Reminder that pIC50 means the negative base-10 logarithm of the concentration expressed in mol/L.

These recorded examples may help you get a feel for the data.
Compound	Endpoint Result
COc1cc([C@@H](O)[C@H](Cn2cc3cccc(C(=O)O)c3n2)OC2CCCC2)cc(OC)c1C [Compound 108a]	8.52
COc1cc([C@@H](O)[C@H](Cn2cc3cccc(C(=O)O)c3n2)OC2CCCC2)ccc1Cl [Compound 126a]	7.19

Note to self: pIC50 recorded for COC(=O)c1cn(C[C@H](OC2Cc3ccccc3C2)[C@H](O)c2cc(OC)c(C)c(OC)c2)cc1CC(=O)O [Compound 103a] was 8.32

What the record says about O=C(O)c1cccc2cn(C[C@H](OC3CCCC3)[C@H](O)c3ccc(C(F)F)cc3)nc12 [Compound 128a] : pIC50 is 6.68

For record COc1cc([C@@H](O)[C@H](Cc2ccc(CC(=O)O)cn2)OCCc2ccccc2)cc(OC)c1C [Compound 106a] the listed pIC50 is 6.39

* * *

- Test Target: human LPA1 (Homo sapiens)
- Construct: expressed in transfected cells; host or cells: CHO-K1
- Protocol Text: In vitro LPA1 calcium flux antagonist assay, Bioduro protocol
- Format: cell-based
- Assay Context: CHO-K1 cells overexpressing human LPA1 and G15a; LPA challenge at EC80; calcium mobilization on FLIPR Tetra; read-out: IC50 (nM) in Assay B2
Measured Parameter: IC50 (nM)
Number only, in nM; omit the unit.

Molecule	Test Target	Quantity Unit	IC50
COc1cc([C@@H](O)[C@H](Cn2cc3nccc(C(=O)O)c3n2)OC2CCCC2)cc(OC)c1C(F)F [Compound 215]	human LPA1 (Homo sapiens)	nM	140
COc1cc([C@@H](O)[C@H](Cn2cc3c(OC)ccc(C(=O)O)c3n2)OC2CCCC2)cc(OC)c1C [Compound 216]	human LPA1 (Homo sapiens)	nM	9.61
COc1cc(C(=O)O)c2nn(C[C@H](OC3CCCC3)[C@H](O)c3cc(OC)c(C)c(OC)c3)cc2n1 [Compound 197]	human LPA1 (Homo sapiens)	nM	23.8

Measured IC50 of COc1cc([C@@H](O)[C@H](Cn2cc3nccc(C(=O)O)c3n2)OC2CCCC2)c(F)cc1C [Compound 190] : 1530

* * *

- Test Target: human LPA1 (Homo sapiens)
- Construct: expressed in transfected cells; host or cells: CHO-K1
- Protocol Text: In vitro LPA1 functional antagonist assay (calcium mobilization, FLIPR)
- Assay type: cell-based
- Assay Context: CHO-K1 cells overexpressing human LPA1; Oleoyl LPA challenge; calcium mobilization on FLIPR Tetra
Measured Parameter: IC50 (nM)
Your answer is read as nM, so omit the unit and give the number.

Examples with answers:
Molecule	Test Target	IC50 (nM)
COc1cc([C@@H](O)[C@H](Cn2cc3cccc(C(=O)O)c3n2)OC2CCCC2)ccc1C1CC1 [Compound 125a]	human LPA1 (Homo sapiens)	80.7
COc1cc([C@@H](O)[C@H](Cc2ccn(CC(=O)O)n2)OC2CCCC2)cc(OC)c1C [Compound 116a]	human LPA1 (Homo sapiens)	1470
COc1cc([C@@H](O)[C@H](Cn2cc3cccc(C(=O)O)c3n2)OC2CCCC2)ccc1F [Compound 139]	human LPA1 (Homo sapiens)	1350
O=C(O)c1cccc2cn(C[C@H](OC3CCCC3)[C@H](O)c3ccc(C(F)(F)F)cc3)nc12 [Compound 124a]	human LPA1 (Homo sapiens)	5700
COc1cc([C@@H](O)[C@H](Cc2nc3cc(CC(=O)O)ccc3[nH]2)OC2Cc3ccccc3C2)cc(OC)c1C [Compound 115a]	human LPA1 (Homo sapiens)	30.8
COc1cc([C@@H](O)[C@H](Cn2cc3cccc(C(=O)O)c3n2)OC(C)C)cc(OC)c1C [Compound 145]	human LPA1 (Homo sapiens)	72.6
COC(=O)c1cn(C[C@H](OCCc2ccccc2)[C@@H](O)c2cc(OC)c(C)c(OC)c2)cc1CC(=O)O [Compound 132]	human LPA1 (Homo sapiens)	1540
COc1cc([C@@H](O)[C@H](Cn2cc3cccc(C(=O)O)c3n2)OC2CCCCC2)cc(OC)c1C [Compound 140]	human LPA1 (Homo sapiens)	11.8

Value sought: IC50, system human LPA1 (Homo sapiens), item COc1cc([C@@H](O)[C@H](Cc2nc3cc(C(=O)O)ccc3[nH]2)OC2Cc3ccccc3C2)cc(OC)c1C [Compound 114a] . Result: 125

* * *

// reported IC50 for each item listed
- Test Target: human LPA1 (Homo sapiens)
- Construct: expressed in transfected cells; host or cells: CHO-K1
- Protocol Text: In vitro LPA1 calcium flux antagonist assay, Bioduro protocol
- Format: cell-based
- Assay Context: CHO-K1 cells overexpressing human LPA1 and G15a; LPA challenge at EC80; calcium mobilization on FLIPR Tetra; read-out: IC50 (nM) in Assay B2

Example results:
1. COc1cc([C@@H](O)[C@H](Cc2cn3cccc(C(=O)O)c3n2)OC2CCCC2)cc(OC)c1C ≥ 10000 nM
2. COc1cc([C@@H](O)[C@H](Cc2nc3cccc(C(=O)O)n3n2)OC2CCCC2)cc(OC)c1C > 10000 nM
3. CCOc1cc([C@@H](O)[C@H](Cc2nc3c(C(=O)O)cccc3s2)OC2CCCC2)cc(OCC)c1C#N 47.2 nM

For record COc1cc([C@@H](O)[C@H](Cn2cc3cccc(C(=O)O)c3n2)OC2CCCC2)cc(OC)c1OC the listed IC50 is 126 nM

// field: IC50; key: COc1cc(C(=O)O)c2nc(C[C@@H](OC3CCCC3)[C@H](O)c3cc(OC)c(C)c(OC)c3)sc2c1 ; value = 1760 nM

GET /value?item= COC(=O)c1sc(C[C@H](OC2CCCC2)[C@H](O)c2cc(OC)c(C)c(OC)c2)nc1CC(=O)O &field=IC50 returns 8.53 nM

Please fill in: IC50 reported for COc1cc([C@@H](O)[C@H](Cn2cc3cccc(C(=O)NS(C)(=O)=O)c3n2)OC2CCCC2)cc(OC)c1C = ≥ 10000 nM
